Taken from patent US20240383999A1.

tested_on: T1, Human recombinant CD5L protein (Sino Biological, Catalog Number 10791-H08H) (human, UniProt O43866 20-347)
T1 construct: Bought protein; also called human CD5L; CD5L-His; not shown: 6xHIS-tag
T1 sequence (looked up): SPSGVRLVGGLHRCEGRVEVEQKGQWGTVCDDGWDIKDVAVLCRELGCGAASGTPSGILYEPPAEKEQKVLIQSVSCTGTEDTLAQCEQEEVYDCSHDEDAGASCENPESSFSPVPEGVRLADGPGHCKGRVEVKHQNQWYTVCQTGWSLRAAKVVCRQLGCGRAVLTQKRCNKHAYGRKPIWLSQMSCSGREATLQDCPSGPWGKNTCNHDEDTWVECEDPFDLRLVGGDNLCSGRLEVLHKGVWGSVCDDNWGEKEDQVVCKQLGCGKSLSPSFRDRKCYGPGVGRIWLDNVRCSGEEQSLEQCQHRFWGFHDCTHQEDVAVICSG
assay_text: BLI (Octet RED96), antibody on protein A biosensors, CD5L 0.1-200 nM in solution, 1:1 fit
Field: Kd. Provide a value for each of the binders that follow.

binder	test_value
R-35 (antibody, V domains shown, also called anti-CD5L antibody R-35; CD5L antibody (R-35)) VH: AAVKESGGRLVTPGTPLTLTCTVSGIDLSDYYMTWVRQAPGKGLEYIGIIYASGNAYFASWAKGRFTISRTSSTTVDLNVASPTTEDTATYFCARNIGGSSNLWGQGTLVTVSS VL: ELDMTQTPASVSEPVGGTVTIKCQASERIYNNLAWYQQKPGQPPKLLFYSASTLASGVPSRFKGSGSGTEFTLTISDLECADAAIYYCQCTGYGTTYGLVFGGGTEVEI	0.78 nM

Req: # lookup: Kd of R-40 (antibody, V domains shown) VH: QSVKESGGRLVKPDETLTITCTVSGIDLSRYSIQWVRQAPGGGLQWIGVMSIGSSAYYANWAKGRFTISKTSSTTVDLTMTSLTAADTATYFCARSNLYRGAFDPWGPGTLVTISS VL: ELVMTQTPASVEAAVGGTVTIKCQSSESVYKNNYLSWYQLKPGQPPKLLFYSASTLASRVPSRFSGSGSGTQFTLTISDLECDDAATYYCAGYYGSSSVDRYTFGGGTEVEIK
Resp: 1.74 nM
